System: OVCAR-4 ovarian
TEST_DESCRIPTION: NCI tumour cell line growth inhibition, 48 h
For each of the molecules below, state its TGI.

TGI for S=c1[nH]nc(NNc2ccccc2)n1Nc1ccccc1 is > 100 µM

TGI reading for O=C(Nc1ccc(I)cc1F)c1cc(Cl)ccc1O : 6.4 µM

Recorded result, CCC(=O)C(C(C)/C=C/CCSc1ccccc1)C(O)CCCCCC(=O)OC (stereo unspecified) , TGI: > 100 µM

Lab note: CC1=NN(C(=O)CC(=O)Nc2cccc(Cl)c2)C(=O)C1N=Nc1ccc(C(=O)O)cc1 (stereo unspecified) gave TGI of > 100 µM

Entry under test: CN(C)CCN1C(=O)c2cccc3cccc(c23)C1=O . Its TGI was > 25 µM

Note to self: TGI recorded for OC(C/C=N/Nc1ccccc1)(C(F)(F)Cl)C(F)(F)Cl was > 10 µM

For reference, reported TGI for O=C1NCCS(=O)(=O)/C1=C\C=C\c1cccc(C(F)(F)F)c1 stands at 19.2 µM

For this molecule ( CC1=C(/C=C/C(C)=C/C=C/C(C)=C/CO)C(C)(C)CCC1 ), measured TGI is > 100 µM

Recorded TGI (molecule ClCc1ccc(Cn2cnc3c(Cl)nc(Cl)nc32)cc1 ): 18.8 µM

Notebook: O=C(/C=C1/Nc2ccc([N+](=O)[O-])cc2NC1O)c1cccc([N+](=O)[O-])c1 (stereo unspecified) , TGI read as 11.1 µM

TGI reported for this molecule COC(=O)C1=CC2OC1(C)CCC2=O (stereo unspecified) : > 100 µM

---

Tested on: T-47D breast
TEST_DESCRIPTION: NCI tumour cell line growth inhibition, 48 h
Provide the reported TGI of each item.

Measured TGI for this entry CC(=O)c1cc(C)n2c1CS[C@@H]2c1ccccc1 on T-47D breast: > 100 µM

The compound CN1C(=O)C2C=C3CCCCC3=CC2N(C)C1=O (stereo unspecified) , tested on T-47D breast, showed TGI of > 100 µM

Kindly note: T-47D breast, O=C1CC(c2ccc(Cl)cc2)Oc2ccccc21 (stereo unspecified) , TGI value reported: > 100 µM

Record Cn1cnc([N+](=O)[O-])c1Sc1ncn[nH]1 has T-47D breast TGI equal to > 100 µM

# value of TGI, T-47D breast, item O=c1oc2ccc([N+](=O)[O-])cc2c(Nc2ccc3c(c2)S(=O)(=O)c2ccccc2O3)c1[N+](=O)[O-] = > 100 µM

The measured TGI that O=c1[nH]c2c(c(=O)[nH]1)SSC2 showed for T-47D breast is 25.2 µM

The value of TGI recorded for COc1cc2c3c(n(CCCN=[N+]=[N-])c(=O)c2cc1OC)-c1ccc(N(C)C)cc1C3=O when tested on T-47D breast reads > 100 µM

Form field TGI for item c1ccc(CC2(c3cc4ccccc4[nH]3)OCCO2)nc1 on T-47D breast: > 100 µM

Observed TGI on T-47D breast, entry CC1OC(OC2C(Oc3cc(O)c4c(c3)O[C@H](c3ccc(O)cc3)CC4=O)OC(CO)C(O)C2O)C(O)C(O)C1O (stereo partly specified) , equals > 100 µM

Record O=C(NNC(=O)c1ccccc1O)c1ccc(O)cc1 / T-47D breast, TGI recorded as > 100 µM

The observed TGI for C=CS(=O)(=O)CCN1CC1 when tested with T-47D breast stands at > 10 µM
